- System: 628569-122-R-J1-PDC complex spheroid viability
- experimentNotes: Anticancer human tumor 628569-122-R-J1-PDC patient-derived head and neck squamous carcinoma cell line growth inhibition [CLK]
- conditionParameters: second compound 3.16 µM; first compound 1 µM; stronger effect = lower value
label 1 if viability, T/C is below 9%. label 0 if not; exact matches included in label 0.

# example entries with known answers
C=C(F)C(=O)N1CCN(c2nc(OCC3CCCN3C)nc3c2CCN(c2cccc4cccc(Cl)c24)C3)CC1CC#N (stereo not given) + CN1CCN(c2cc(C(=O)Nc3cc4cc(-c5cnn(C)c5)ccc4cn3)ccn2)CC1
label 1
CC(Nc1ccc2c(c1)OCCn1cc(N3C(=O)OCC3C(F)F)nc1-2)C(N)=O (stereo not given) + CN1CCN(c2cc(C(=O)Nc3cc4cc(-c5cnn(C)c5)ccc4cn3)ccn2)CC1
label 1
CCN1CCN(Cc2ccc(Nc3ncc(F)c(-c4cc(F)c5nc(C)n(C(C)C)c5c4)n3)nc2)CC1 + CNC(=O)c1ccc(Nc2nc(OC3CCCC3)c3c(-c4ccc5nc(C)oc5c4)c[nH]c3n2)c(OC)c1
label 0

Check if viability, T/C falls below 9% for COC1C=CCC(C)C(C)S(=O)(=O)NC(=O)c2ccc3c(c2)N(CC2CCC21)CC1(CCCc2cc(Cl)ccc21)CO3 (stereo not given) + CNC(=O)c1ccc(Nc2nc(OC3CCCC3)c3c(-c4ccc5nc(C)oc5c4)c[nH]c3n2)c(OC)c1 .
label 0

---

- Test system: 628569-122-R-J1-PDC complex spheroid viability
- experimentNotes: Anticancer human tumor 628569-122-R-J1-PDC cell line growth inhibition [CLK]; active = viability on the fitted dose curve at most 10% of control; inactive = the rest;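 also: spheroids exposed to agents for seven days before readout; 100% = DMSO vehicle control viability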
- conditionParameters: second compound 3.16 µM; first compound 0.03 µM
- Source text: A high-throughput screen of multi-cell type tumor spheroids was designed to identify active combinations of […] and targeted small molecules. Complex spheroids include a stromal component modeled by human endothelial cells (HUVEC) and fibroblasts modeled by human mesenchymal stem cells (MSCs). […] Compounds. […] If the clinical Cmax for an agent had not been determined, the highest concentration tested was 10 microM. […]
Choose one outcome from this list and give only that: active, inactive

CC(C)CC(NC(=O)C(Cc1ccccc1)NC(=O)c1cnccn1)B(O)O (stereo not drawn) + CN1CCN(c2cc(C(=O)Nc3cc4cc(-c5cnn(C)c5)ccc4cn3)ccn2)CC1
active
NC(=O)C(=Cn1cnc(-c2cc(C(F)(F)F)cc(C(F)(F)F)c2)n1)c1cncnc1 + CN1CCN(c2cc(C(=O)Nc3cc4cc(-c5cnn(C)c5)ccc4cn3)ccn2)CC1
active

Let's switch to this compound now.
Recorded test outcome, item CC(C)CC(NC(=O)C(Cc1ccccc1)NC(=O)c1cnccn1)B(O)O (stereo not drawn) + CNC(=O)c1ccc(Nc2nc(OC3CCCC3)c3c(-c4ccc5nc(C)oc5c4)c[nH]c3n2)c(OC)c1
inactive

---

// reported viability, T/C for each item listed
- System: 628569-122-R-J1-PDC complex spheroid viability
- experimentNotes: Anticancer human tumor 628569-122-R-J1-PDC cell line growth inhibition [CLK];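 also: spheroids exposed to agents for seven days before readout; 100% = DMSO vehicle control viability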
- conditionParameters: second compound 3.16 µM; first compound 1 µM; stronger effect = lower value
Please reply with the bare figure in % and do not write the unit itself.

Here are 3 compounds together with their reported answers.
CC(=O)O[C@H]1C(=O)[C@@]2(C)[C@H]([C@H](OC(=O)c3ccccc3)[C@]3(O)C[C@H](OC(=O)[C@H](O)[C@@H](NC(=O)c4ccccc4)c4ccccc4)C(C)=C1C3(C)C)[C@]1(OC(C)=O)CO[C@@H]1C[C@@H]2O + CN1CCN(c2cc(C(=O)Nc3cc4cc(-c5cnn(C)c5)ccc4cn3)ccn2)CC1
3.95
CCc1c2c(nc3ccc(O)cc13)-c1cc3c(c(=O)n1C2)COC(=O)[C@]3(O)CC + CN1CCN(c2cc(C(=O)Nc3cc4cc(-c5cnn(C)c5)ccc4cn3)ccn2)CC1
2.6
Nc1ccn(C2OC(CO)C(O)C2(F)F)c(=O)n1 (stereo not given) + CNC(=O)c1ccc(Nc2nc(OC3CCCC3)c3c(-c4ccc5nc(C)oc5c4)c[nH]c3n2)c(OC)c1
33.5

viability, T/C for COc1cccc2c1C(=O)c1c(O)c3c(c(O)c1C2=O)CC(O)(C(=O)CO)CC3OC1CC(N)C(O)C(C)O1 (stereo not given) + CN1CCN(c2cc(C(=O)Nc3cc4cc(-c5cnn(C)c5)ccc4cn3)ccn2)CC1 ?
8.38

Then C=CC(=O)N1CCN(c2nc(=O)n(-c3c(C)ccnc3C(C)C)c3nc(-c4c(O)cccc4F)c(F)cc23)C(C)C1 (stereo not given) + CN1CCN(c2cc(C(=O)Nc3cc4cc(-c5cnn(C)c5)ccc4cn3)ccn2)CC1 ?
4.78

---

// reported viability, T/C for each item listed
- Tested on: 628569-122-R-J1-PDC complex spheroid viability
- experimentNotes: Anticancer human tumor 628569-122-R-J1-PDC cell line growth inhibition [CLK];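 also: spheroids exposed to agents for seven days before readout; 100% = DMSO vehicle control viability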
- conditionParameters: second compound 10 µM; first compound 0.316 µM; stronger effect = lower value

CC1COCCN1c1cc(C2(S(C)(=N)=O)CC2)nc(-c2ccnc3[nH]ccc23)n1 (stereo not given) + CN1CCN(c2cc(C(=O)Nc3cc4cc(-c5cnn(C)c5)ccc4cn3)ccn2)CC1
5.12%
C=C(F)C(=O)N1CCN(c2nc(OCC3CCCN3C)nc3c2CCN(c2cccc4cccc(Cl)c24)C3)CC1CC#N (stereo not given) + CNC(=O)c1ccc(Nc2nc(OC3CCCC3)c3c(-c4ccc5nc(C)oc5c4)c[nH]c3n2)c(OC)c1
46.7%
O=C(c1cc(Cc2n[nH]c(=O)c3ccccc23)ccc1F)N1CCN(C(=O)C2CC2)CC1 + CN1CCN(c2cc(C(=O)Nc3cc4cc(-c5cnn(C)c5)ccc4cn3)ccn2)CC1
1.85%

viability, T/C for CCN1CCN(Cc2ccc(Nc3ncc(F)c(-c4cc(F)c5nc(C)n(C(C)C)c5c4)n3)nc2)CC1 + CNC(=O)c1ccc(Nc2nc(OC3CCCC3)c3c(-c4ccc5nc(C)oc5c4)c[nH]c3n2)c(OC)c1 ?
76.4%

Then CC(=O)O[C@H]1C(=O)[C@@]2(C)[C@H]([C@H](OC(=O)c3ccccc3)[C@]3(O)C[C@H](OC(=O)[C@H](O)[C@@H](NC(=O)c4ccccc4)c4ccccc4)C(C)=C1C3(C)C)[C@]1(OC(C)=O)CO[C@@H]1C[C@@H]2O + CNC(=O)c1ccc(Nc2nc(OC3CCCC3)c3c(-c4ccc5nc(C)oc5c4)c[nH]c3n2)c(OC)c1 ?
55.3%

Then C#Cc1c(F)ccc2cc(O)cc(-c3ncc4c(N5CC6CCC(C5)N6)nc(OCC56CCCN5CC(F)C6)nc4c3F)c12 (stereo not given) + CN1CCN(c2cc(C(=O)Nc3cc4cc(-c5cnn(C)c5)ccc4cn3)ccn2)CC1 ?
2.28%

---

- System: 628569-122-R-J1-PDC complex spheroid viability
- experimentNotes: Anticancer human tumor 628569-122-R-J1-PDC cell line growth inhibition [CLK];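 also: spheroids exposed to agents for seven days before readout; 100% = DMSO vehicle control viability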
- conditionParameters: second compound 0.0316 µM; first compound 0.1 µM; stronger effect = lower value
endpointLabel: viability, T/C

Here are 2 molecules together with their reported answers.
CCc1c2c(nc3ccc(O)cc13)-c1cc3c(c(=O)n1C2)COC(=O)[C@]3(O)CC + CN1CCN(c2cc(C(=O)Nc3cc4cc(-c5cnn(C)c5)ccc4cn3)ccn2)CC1
52.2%
C#Cc1c(F)ccc2cc(O)cc(-c3ncc4c(N5CC6CCC(C5)N6)nc(OCC56CCCN5CC(F)C6)nc4c3F)c12 (stereo not given) + CNC(=O)c1ccc(Nc2nc(OC3CCCC3)c3c(-c4ccc5nc(C)oc5c4)c[nH]c3n2)c(OC)c1
94.2%

viability, T/C for O=C(c1cc(Cc2n[nH]c(=O)c3ccccc23)ccc1F)N1CCN(C(=O)C2CC2)CC1 + CNC(=O)c1ccc(Nc2nc(OC3CCCC3)c3c(-c4ccc5nc(C)oc5c4)c[nH]c3n2)c(OC)c1 ?
105%

Then COC1C=CCC(C)C(C)S(=O)(=O)NC(=O)c2ccc3c(c2)N(CC2CCC21)CC1(CCCc2cc(Cl)ccc21)CO3 (stereo not given) + CN1CCN(c2cc(C(=O)Nc3cc4cc(-c5cnn(C)c5)ccc4cn3)ccn2)CC1 ?
89.9%

Then O=C(c1cc(Cc2n[nH]c(=O)c3ccccc23)ccc1F)N1CCN(C(=O)C2CC2)CC1 + CN1CCN(c2cc(C(=O)Nc3cc4cc(-c5cnn(C)c5)ccc4cn3)ccn2)CC1 ?
89.5%

Then C=CC(=O)N1CCN(c2nc(=O)n(-c3c(C)ccnc3C(C)C)c3nc(-c4c(O)cccc4F)c(F)cc23)C(C)C1 (stereo not given) + CN1CCN(c2cc(C(=O)Nc3cc4cc(-c5cnn(C)c5)ccc4cn3)ccn2)CC1 ?
89.4%

Then CC1(C)CCC(CN2CCN(c3ccc(C(=O)NS(=O)(=O)c4ccc(NCC5CCOCC5)c([N+](=O)[O-])c4)c(Oc4cnc5[nH]ccc5c4)c3)CC2)=C(c2ccc(Cl)cc2)C1 + CNC(=O)c1ccc(Nc2nc(OC3CCCC3)c3c(-c4ccc5nc(C)oc5c4)c[nH]c3n2)c(OC)c1 ?
102%

Then O=c1[nH]cc(F)c(=O)[nH]1 + CN1CCN(c2cc(C(=O)Nc3cc4cc(-c5cnn(C)c5)ccc4cn3)ccn2)CC1 ?
97.8%

Then COc1ccc([C@@H](O)c2cc(-c3ncnc4cc(N5CCOCC5)ccc34)c(F)cc2Cl)nn1 + CN1CCN(c2cc(C(=O)Nc3cc4cc(-c5cnn(C)c5)ccc4cn3)ccn2)CC1 ?
88.2%

Then C#Cc1c(F)ccc2cc(O)cc(-c3ncc4c(N5CC6CCC(C5)N6)nc(OCC56CCCN5CC(F)C6)nc4c3F)c12 (stereo not given) + CN1CCN(c2cc(C(=O)Nc3cc4cc(-c5cnn(C)c5)ccc4cn3)ccn2)CC1 ?
100%
